# Tested on: HeLa Kyoto
# assayDetails: solubility change mitosis vs G1/S (difference of NP-40 vs SDS log2 ratios) (log2 ratio difference); higher = more soluble in mitosis
parameterMeasured: solubility change mitosis (log2)

INSERT INTO measurements (sequencetext, parametermeasured, readoutvalue) VALUES
  ('MARFALTVVRHGETRFNKEKIIQGQGVDEPLSETGFKQAAAAGIFLNNVKFTHAFSSDLMRTKQTMHGILERSKFCKDMTVKYDSRLRERKYGVVEGKALSELRAMAKAAREECPVFTPPGGETLDQVKMRGIDFFEFLCQLILKEADQKEQFSQGSPSNCLETSLAEIFPLGKNHSSKVNSDSGIPGLAASVLVVSHGAYMRSLFDYFLTDLKCSLPATLSRSELMSVTPNTGMSLFIINFEEGREVKPTVQCICMNLQDHLNGLTETR [TIGAR]', 'solubility change mitosis (log2)', -0.0797),
  ('MSSCSRVALVTGANRGIGLAIARELCRQFSGDVVLTARDVARGQAAVQQLQAEGLSPRFHQLDIDDLQSIRALRDFLRKEYGGLNVLVNNAAVAFKSDDPMPFDIKAEMTLKTNFFATRNMCNELLPIMKPHGRVVNISSLQCLRAFENCSEDLQERFHSETLTEGDLVDLMKKFVEDTKNEVHEREGWPNSPYGVSKLGVTVLSRILARRLDEKRKADRILVNACCPGPVKTDMDGKDSIRTVEEGAETPVYLALLPPDATEPQGQLVHDKVVQNW [CBR3]', 'solubility change mitosis (log2)', -0.0459);

---

# System: HeLa Kyoto
# assayDetails: solubility in G1/S (NP-40 vs SDS abundance) (log2 ratio); higher = more soluble
# experimentalParameters: cell cycle stage: G1/S
parameterMeasured: solubility in G1/S (log2)

INSERT INTO assay_data (substance, readoutvalue) VALUES
  ('MGDREQLLQRARLAEQAERYDDMASAMKAVTELNEPLSNEDRNLLSVAYKNVVGARRSSWRVISSIEQKTMADGNEKKLEKVKAYREKIEKELETVCNDVLSLLDKFLIKNCNDFQYESKVFYLKMKGDYYRYLAEVASGEKKNSVVEASEAAYKEAFEISKEQMQPTHPIRLGLALNFSVFYYEIQNAPEQACLLAKQAFDDAIAELDTLNEDSYKDSTLIMQLLRDNLTLWTSDQQDEEAGEGN [YWHAH]', 0.565),
  ('MAVADLALIPDVDIDSDGVFKYVLIRVHSAPRSGAPAAESKEIVRGYKWAEYHADIYDKVSGDMQKQGCDCECLGGGRISHQSQDKKIHVYGYSMAYGPAQHAISTEKIKAKYPDYEVTWANDGY [PHPT1]', 0.345),
  ('MALDPADQHLRHVEKDVLIPKIMREKAKERCSEQVQDFTKCCKNSGVLMVVKCRKENSALKECLTAYYNDPAFYEECKMEYLKEREEFRKTGIPTKKRLQKLPTSM [CMC1]', -0.253),
  ('MSASVVSVISRFLEEYLSSTPQRLKLLDAYLLYILLTGALQFGYCLLVGTFPFNSFLSGFISCVGSFILAVCLRIQINPQNKADFQGISPERAFADFLFASTILHLVVMNFVG [DAD1]', -0.0329),
  ('MAAAAAQGGGGGEPRRTEGVGPGVPGEVEMVKGQPFDVGPRYTQLQYIGEGAYGMVSSAYDHVRKTRVAIKKISPFEHQTYCQRTLREIQILLRFRHENVIGIRDILRASTLEAMRDVYIVQDLMETDLYKLLKSQQLSNDHICYFLYQILRGLKYIHSANVLHRDLKPSNLLINTTCDLKICDFGLARIADPEHDHTGFLTEYVATRWYRAPEIMLNSKGYTKSIDIWSVGCILAEMLSNRPIFPGKHYLDQLNHILGILGSPSQEDLNCIINMKARNYLQSLPSKTKVAWAKLFPKSDSKALDLLDRMLTFNPNKRITVEEALAHPYLEQYYDPTDEPVAEEPFTFAMELDDLPKERLKELIFQETARFQPGVLEAP [MAPK3]', 0.391),
  ('MPVVRKIFRRRRGDSESEEDEQDSEEVRLKLEETREVQNLRKRPNGVSAVALLVGEKVQEETTLVDDPFQMKTGGMVDMKKLKERGKDKISEEEDLHLGTSFSAETNRRDEDADMMKYIETELKKRKGIVEHEEQKVKPKNAEDCLYELPENIRVSSAKKTEEMLSNQMLSGIPEVDLGIDAKIKNIISTEDAKARLLAEQQNKKKDSETSFVPTNMAVNYVQHNRFYHEELNAPIRRNKEEPKARPLRVGDTEKPEPERSPPNRKRPANEKATDDYHYEKFKKMNRRY [C9ORF78]', 0.501),
  ('MALLFARSLRLCRWGAKRLGVASTEAQRGVSFKLEEKTAHSSLALFRDDTGVKYGLVGLEPTKVALNVERFREWAVVLADTAVTSGRHYWEVTVKRSQQFRIGVADVDMSRDSCIGVDDRSWVFTYAQRKWYTMLANEKAPVEGIGQPEKVGLLLEYEAQKLSLVDVSQVSVVHTLQTDFRGPVVPAFALWDGELLTHSGLEVPEGL [SPRYD4]', -0.0415),
  ('MPPKKDVPVKKPAGPSISKPAAKPAAAGAPPAKTKAEPAVPQAPQKTQEPPVDLSKVVIEFNKDQLEEFKEAFELFDRVGDGKILYSQCGDVMRALGQNPTNAEVLKVLGNPKSDELKSRRVDFETFLPMLQAVAKNRGQGTYEDYLEGFRVFDKEGNGKVMGAELRHVLTTLGEKMTEEEVETVLAGHEDSNGCINYEAFLKHILSV [MYL6B]', -0.063),
  ('MAATGANAEKAESHNDCPVRLLNPNIAKMKEDILYHFNLTTSRHNFPALFGDVKFVCVGGSPSRMKAFIRCVGAELGLDCPGRDYPNICAGTDRYAMYKVGPVLSVSHGMGIPSISIMLHELIKLLYYARCSNVTIIRIGTSGGIGLEPGTVVITEQAVDTCFKAEFEQIVLGKRVIRKTDLNKKLVQELLLCSAELSEFTTVVGNTMCTLDFYEGQGRLDGALCSYTEKDKQAYLEAAYAAGVRNIEMESSVFAAMCSACGLQAAVVCVTLLNRLEGDQISSPRNVLSEYQQRPQRLVSYFIKKKLSKA [UPP1]', 0.102),
  ('CAMSAP1', -0.149),
  ('MCGNTMSVPLLTDAATVSGAERETAAVIFLHGLGDTGHSWADALSTIRLPHVKYICPHAPRIPVTLNMKMVMPSWFDLMGLSPDAPEDEAGIKKAAENIKALIEHEMKNGIPANRIVLGGFSQGGALSLYTALTCPHPLAGIVALSCWLPLHRAFPQAANGSAKDLAILQCHGELDPMVPVRFGALTAEKLRSVVTPARVQFKTYPGVMHSSCPQEMAAVKEFLEKLLPPV [LYPLA2]', 0.543),
  ('MRQKHYLEAAARGLHDSCPGQARYLLWAYTSSHDDKSTFEETCPYCFQLLVLDNSRVRLKPKARLTPKIQKLLNREARNYTLSFKEAKMVKKFKDSKSVLLITCKTCNRTVKHHGKSRSFVSTLKSNPATPTSKLSLKTPERRTANPNHDMSGSKGKSPASVFRTPTSGQSVSTCSSKNTSKTKKHFSQLKMLLSQNESQKIPKVDFRNFLSSLKGGLLK [C18ORF21]', -0.722),
  ('MAATFFGEVVKAPCRAGTEDEEEEEEGRRETPEDREVRLQLARKREVRLLRRQTKTSLEVSLLEKYPCSKFIIAIGNNAVAFLSSFVMNSGVWEEVGCAKLWNEWCRTTDTTHLSSTEAFCVFYHLKSNPSVFLCQCSCYVAEDQQYQWLEKVFGSCPRKNMQITILTCRHVTDYKTSESTGSLPSPFLRALKTQNFKDSACCPLLEQPNIVHDLPAAVLSYCQVWKIPAILYLCYTDVMKLDLITVEAFKPILSTRSLKGLVKNIPQSTEILKKLMTTNEIQSNIYT [PSMG1]', 0.0966);

---

# System: HeLa Kyoto
# assayDetails: solubility change mitosis vs G1/S (difference of NP-40 vs SDS log2 ratios) (log2 ratio difference); higher = more soluble in mitosis
parameterMeasured: solubility change mitosis (log2)

INSERT INTO measurements (sequencetext, readoutvalue) VALUES
  ('MASRGKTETSKLKQNLEEQLDRLMQQLQDLEECREELDTDEYEETKKETLEQLSEFNDSLKKIMSGNMTLVDELSGMQLAIQAAISQAFKTPEVIRLFAKKQPGQLRTRLAEMDRDLMVGKLERDLYTQQKVEILTALRKLGEKLTADDEAFLSANAGAILSQFEKVSTDLGSGDKILALASFEVEKTKK [LZIC]', 0.544),
  ('MGCTVSAEDKAAAERSKMIDKNLREDGEKAAREVKLLLLGAGESGKSTIVKQMKIIHEDGYSEEECRQYRAVVYSNTIQSIMAIVKAMGNLQIDFADPSRADDARQLFALSCTAEEQGVLPDDLSGVIRRLWADHGVQACFGRSREYQLNDSAAYYLNDLERIAQSDYIPTQQDVLRTRVKTTGIVETHFTFKDLHFKMFDVGGQRSERKKWIHCFEGVTAIIFCVALSAYDLVLAEDEEMNRMHESMKLFDSICNNKWFTDTSIILFLNKKDLFEEKITHSPLTICFPEYTGANKYDEAASYIQSKFEDLNKRKDTKEIYTHFTCATDTKNVQFVFDAVTDVIIKNNLKDCGLF [GNAI2]', -0.242),
  ('MFVELNNLLNTTPDRAEQGKLTLLCDAKTDGSFLVHHFLSFYLKANCKVCFVALIQSFSHYSIVGQKLGVSLTMARERGQLVFLEGLKSAVDVVFQAQKEPHPLQFLREANAGNLKPLFEFVREALKPVDSGEARWTYPVLLVDDLSVLLSLGMGAVAVLDFIHYCRATVCWELKGNMVVLVHDSGDAEDEENDILLNGLSHQSHLILRAEGLATGFCRDVHGQLRILWRRPSQPAVHRDQSFTYQYKIQDKSVSFFAKGMSPAVL [ELP6]', -0.245);
